- testTarget: T1, APC3881-AA
- T1 chain: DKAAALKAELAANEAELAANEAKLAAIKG
- measurementProtocol: two-hybrid library CCmax;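 note: natural log of median RNA to DNA barcode read ratio; higher means stronger binding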
- experimentalContext: mean of both orientations
propertyLabel: interaction score
Hey, just send me the number, nothing else.

The examples below pair each entry with its known result.
- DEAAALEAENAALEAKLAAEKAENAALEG [APC2474-AA]: -1.83
- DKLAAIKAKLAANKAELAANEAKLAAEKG [APC1987-AA]: -1.66
- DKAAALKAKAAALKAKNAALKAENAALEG [APC3354-AA]: -1.72

Prompt: Identify interaction score associated with the binder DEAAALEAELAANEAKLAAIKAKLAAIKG [APC2811-AA]
Response: -1.68

Prompt: Identify interaction score associated with the binder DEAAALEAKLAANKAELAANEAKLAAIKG [APC2981-AA]
Response: -1.67

Attribution: paper PMC10397247
